# EXPERIMENTAL TARGET: GsSir2;GsAgo (Geobacter sulfurreducens Caccavo (ATCC …, UniProt Q74DF6;Q74DF5 1-587;1-473, |))
# EXPERIMENTAL PROTOCOL: EMSA
ENDPOINT NAME: Kd

// below: answered binders
gRNA TF-A + target ssDNA MZ-949 (DNA:RNA, 5'-phosphate on guide) RNA: AUAAUGGUUUCUUAGACGUCGUUUUAGAGCUGUGUUGUUUCG DNA: CGAAACAACACAGCTCTAAAACGACGTCTAAGAAACCATTAT; 0.02 nM
gDNA TK-49 + target ssRNA MZ-1185 (DNA:RNA, 5'-phosphate on guide) DNA: ATAATGGTTTCTTAGACGTCGTTTTAGAGCTGTGTTGTTTCG RNA: CGAAACAACACAGCUCUAAAACGACGUCUAAGAAACCAUUAU; 0.252 nM
gDNA TK-49 + target ssDNA MZ-949 (dsDNA, 5'-phosphate on guide) DNA 1: ATAATGGTTTCTTAGACGTCGTTTTAGAGCTGTGTTGTTTCG DNA 2: CGAAACAACACAGCTCTAAAACGACGTCTAAGAAACCATTAT; 0.022 nM

Q) Form field: reported Kd of gRNA TF-A + nsp-ssDNA MZ-589 (mixed, 5'-phosphate on guide) RNA: AUAAUGGUUUCUUAGACGUCGUUUUAGAGCUGUGUUGUUUCG DNA: GGAGATGGGAAGTCATTAGATGTAGAACTTGAATGGCAACGG
A) 0.42 nM

Q) Form field: reported Kd of gRNA TF-A + target ssRNA MZ-1185 (dsRNA, 5'-phosphate on guide) RNA 1: AUAAUGGUUUCUUAGACGUCGUUUUAGAGCUGUGUUGUUUCG RNA 2: CGAAACAACACAGCUCUAAAACGACGUCUAAGAAACCAUUAU
A) 0.205 nM
